Reference source for all entries: patent US20240199611A1

- Type: physicochemical
- measurement-conditions: 48 h, 30 μM, pH 1.6
observation-type: chemical stability (% by LCMS), ACN/0.1N HCl (%)
Answer format: numeric, % implied, no suffix.

# count of solved cases: 3
structure-smiles: CC1=NN(c2ccc(CNC(=O)c3c(C(F)(F)F)nc4ccc(C)cn34)cc2F)CCN1S(=O)(=O)C(F)(F)F
numeric-readout: 100

structure-smiles: CCc1nc2ccc(C)cn2c1C(=O)NCc1ccc(N2CCN(S(=O)(=O)C(F)(F)F)C(C(N)=O)=N2)cc1
numeric-readout: 100

structure-smiles: CC1=NN(c2ccc(CNC(=O)c3c(C(F)(F)F)nc4ccccn34)cc2F)CCN1S(=O)(=O)C(F)(F)F
numeric-readout: 99

Query string: Would you kindly share the measured chemical stability (% by LCMS), ACN/0.1N HCl for CCC1=NN(c2ncc(CNC(=O)c3c(CC)nc4ncc(C)cn34)cc2F)CCN1S(=O)(=O)C(F)(F)F ?
Result string: 98

---

- Tested on: Mycobacterium tuberculosis strain EH4.0 expressing green-fluorescent protein (GFP)
- method: microbe, parasite or virus in culture
- Type: cell-based
- measurement-conditions: Test 1 (and/or Test 2), read-out: pIC50 (converted)
observation-type: IC50 (nM)
Please state the figure in nM; there is no need to write the unit.

Example results:
molecule: CC1=NN(c2ccc(CNC(=O)c3c(C(F)(F)F)nc4ncc(C)cn34)cc2F)CCN1S(=O)(=O)C(F)(F)F [Compound 257]
IC50, nM: 6.03
--
molecule: CCc1nc2ncc(C)cn2c1C(=O)NCc1ccc(N2CCN(S(=O)(=O)C(F)(F)F)C(C)=N2)c(F)c1 [Compound 251]
IC50, nM: 0.437
--
molecule: CC1=NN(c2ccc(CNC(=O)c3c(C(F)(F)F)nc4ccc(C)cn34)cc2F)CCN1S(=O)(=O)C(F)(F)F [Compound 253]
IC50, nM: 1.86

Query string: // IC50 lookup, key: CCc1nc2ccc(COC)cn2c1C(=O)NCc1ccc(N2CCN(S(=O)(=O)C(F)(F)F)C=N2)cc1 [Compound 43]
Result string: 10
